Provide the recorded IC50 for the entries that follow.
- target_system: full-length beta-Catenin (Uniprot ID P35222) (Homo sapiens (Human)) (UniProt P35222)
- Sequence (P35222 whole entry): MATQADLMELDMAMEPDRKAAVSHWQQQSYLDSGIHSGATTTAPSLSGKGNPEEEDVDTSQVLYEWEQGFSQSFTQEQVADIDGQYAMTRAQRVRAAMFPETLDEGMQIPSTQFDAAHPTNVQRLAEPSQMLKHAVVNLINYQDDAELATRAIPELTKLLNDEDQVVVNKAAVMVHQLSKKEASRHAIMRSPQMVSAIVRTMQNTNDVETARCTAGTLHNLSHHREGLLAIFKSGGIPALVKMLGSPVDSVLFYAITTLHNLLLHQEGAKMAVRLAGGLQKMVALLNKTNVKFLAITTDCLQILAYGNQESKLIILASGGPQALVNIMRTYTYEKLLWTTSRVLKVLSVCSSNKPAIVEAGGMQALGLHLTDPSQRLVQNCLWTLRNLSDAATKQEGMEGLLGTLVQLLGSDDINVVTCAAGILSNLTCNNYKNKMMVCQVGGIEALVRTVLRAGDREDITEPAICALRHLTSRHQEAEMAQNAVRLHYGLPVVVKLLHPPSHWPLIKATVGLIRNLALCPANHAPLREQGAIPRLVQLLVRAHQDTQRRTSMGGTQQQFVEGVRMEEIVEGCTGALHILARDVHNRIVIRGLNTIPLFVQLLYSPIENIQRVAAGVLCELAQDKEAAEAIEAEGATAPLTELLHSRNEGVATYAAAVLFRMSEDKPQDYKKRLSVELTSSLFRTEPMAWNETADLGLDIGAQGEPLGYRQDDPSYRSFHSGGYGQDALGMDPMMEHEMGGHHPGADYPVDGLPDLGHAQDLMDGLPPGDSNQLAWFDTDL
- procedure_text: fluorescence polarization competition; full-length beta-catenin, 5FAM-TCF4 10-53 probe as competitor
Starred links: 1 amine or outer side, 2 acyl side, 3 side chain; linkers in the order of their positions; H or OH if unused. Positions of bridges follow the written chain, without caps; N, C: chain ends. Non-standard residues stand in square brackets, D forms with d. Primed or numbered codes have the meaning given here. PyrS2″ = (S)-3-amino-1-((pent-4-en-1-yloxy)carbonyl)pyrrolidine-3-carboxylic acid (stapling residue), C=CCCCOC(=O)N1CC[C@@](N[*:1])(C(=O)[*:2])C1; PyrS2 = (S)-3-amino-1-((pent-4-en-1-yloxy)carbonyl)pyrrolidine-3-carboxylic acid, C=CCCCOC(=O)N1CC[C@@](N[*:1])(C(=O)[*:2])C1; SPip2 = 4-amino-1-((pent-4-en-1-yloxy)carbonyl)piperidine-4-carboxylic acid, C=CCCCOC(=O)N1CCC(N[*:1])(C(=O)[*:2])CC1; SPip1 = 4-amino-1-((but-3-en-1-yloxy)carbonyl)piperidine-4-carboxylic acid, C=CCCOC(=O)N1CCC(N[*:1])(C(=O)[*:2])CC1; B5(25) = 2-amino-2-(pent-4-en-1-yl)hept-6-enoic acid (stitching residue), C=CCCCC(CCCC=C)(N[*:1])C(=O)[*:2]; B5 = 2-amino-2-(pent-4-en-1-yl)hept-6-enoic acid, C=CCCCC(CCCC=C)(N[*:1])C(=O)[*:2]; Phe(3-COOH) = N[C@@H](Cc1cccc(C(=O)O)c1)C(=O)O; Phe(2-CF3) = N[C@@H](Cc1ccccc1C(F)(F)F)C(=O)O; Bta = N[C@@H](Cc1csc2ccccc12)C(=O)O; αAllylPro = C=CC[C@@]1(C(=O)O)CCCN1; tBuAla = CC(C)(C)C[C@H](N)C(=O)O; 3Thi = N[C@@H](Cc1ccsc1)C(=O)O; R5 = C=CCCC[C@@](C)(N)C(=O)O; Aib = CC(C)(N)C(=O)O
Only the number, expressed in nM, is required.

Prompt: Give the measured IC50 of Ac-[R5]AD[tBuAla][B5(25)]D[Phe(3-COOH)]AAFL[PyrS2″][Phe(2-CF3)][Bta]Q-NH2 (staple 1-5, 5-12 (inferred); also: staple -CH=CH- reduced to -CH2-CH2-) [I-2574] .
Completion: 2960

Prompt: Give the measured IC50 of Ac-[αAllylPro]D[tBuAla][B5]D[Phe(3-COOH)]QAFL[SPip2][Phe(2-CF3)][Bta]A-NH2 (staple 1-4, 4-11; not fully specified; printed as Ac-PL3-Asp-Npg-B5-Asp-3COOHF-Gln-Ala-Phe-Leu-SPip2-2F3MeF-BztA-Ala-NH2; also: earlier-eluting staple isomer composition) [I-2585] .
Completion: 452

Prompt: Give the measured IC50 of Ac-[αAllylPro]D[tBuAla][B5]D[Phe(3-COOH)]QAFL[SPip1][3Thi][Bta]A-NH2 (staple 1-4, 4-11; not fully specified; printed as Ac-PL3-Asp-Npg-B5-Asp-3COOHF-Gln-Ala-Phe-Leu-SPip1-3Thi-BztA-Ala-NH2) [I-2591] .
Completion: 602

Prompt: Give the measured IC50 of Ac-[αAllylPro]D[tBuAla][B5]D[Phe(3-COOH)][Aib]AFK(Ac)[PyrS2][Phe(2-CF3)][Bta]AA-NH2 (staple 1-4, 4-11; not fully specified; printed as Ac-PL3-Asp-Npg-B5-Asp-3COOHF-Aib-Ala-Phe-AcLys-PyrS2-2F3MeF-BztA-Ala-Ala-NH2) [I-2579] .
Completion: 41

Where do these numbers come from? They come from patent US20240116985A1.
